assay: self-inhibition, in situ perfusion: [^3H]-arginine with 100 μM unlabelled L-arginine; format: in vivo, mouse; conditions: male, Balb/c, mouse, supernatant, other: in situ brain perfusion, with 100 µM unlabelled L-arginine, supernatant: [14C] Sucrose, +100uM Un-labelled arginine, 10 mins, Balb/c ♂, 5ml/min; single mouse
readoutType: Kp at 10 min
Please reply with the number alone, leaving off any unit.

Query string: For the compound shown here, OC[C@H]1O[C@@](CO)(O[C@H]2O[C@H](CO)[C@@H](O)[C@H](O)[C@H]2O)[C@@H](O)[C@@H]1O [[^14C]-sucrose, reference compound] , give the reported Kp at 10 min.
Result string: 0.0159
